target entity: cAMP-specific 3',5'-cyclic phosphodiesterase 4D (Homo sapiens)
Sequence (Q08499 whole entry): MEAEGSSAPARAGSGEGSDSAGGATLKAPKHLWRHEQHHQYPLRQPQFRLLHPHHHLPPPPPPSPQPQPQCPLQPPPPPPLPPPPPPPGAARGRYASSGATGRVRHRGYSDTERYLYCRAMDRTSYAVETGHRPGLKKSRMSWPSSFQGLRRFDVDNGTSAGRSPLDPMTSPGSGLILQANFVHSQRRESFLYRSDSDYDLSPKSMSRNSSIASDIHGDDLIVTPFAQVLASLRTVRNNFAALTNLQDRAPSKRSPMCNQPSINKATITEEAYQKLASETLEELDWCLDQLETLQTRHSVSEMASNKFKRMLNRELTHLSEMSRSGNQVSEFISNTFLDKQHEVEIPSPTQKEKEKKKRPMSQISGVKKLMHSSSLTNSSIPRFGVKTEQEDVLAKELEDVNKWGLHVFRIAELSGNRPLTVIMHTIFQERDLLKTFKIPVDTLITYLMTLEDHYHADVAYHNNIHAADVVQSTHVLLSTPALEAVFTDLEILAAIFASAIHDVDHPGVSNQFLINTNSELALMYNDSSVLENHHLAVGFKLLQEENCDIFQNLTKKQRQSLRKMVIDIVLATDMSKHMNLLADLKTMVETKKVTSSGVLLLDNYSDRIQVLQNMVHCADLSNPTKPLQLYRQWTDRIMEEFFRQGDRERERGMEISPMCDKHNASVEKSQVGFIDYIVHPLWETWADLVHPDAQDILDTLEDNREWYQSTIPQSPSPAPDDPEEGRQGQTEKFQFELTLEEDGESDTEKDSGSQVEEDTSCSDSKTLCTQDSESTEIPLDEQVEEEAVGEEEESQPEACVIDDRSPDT
assay overview: PDE4 Enzyme Assay
reported conditions: pH 8; 34 °C
assay readout: pKi
Give bare numbers, as −log10 of the molar value.

Reported pKi ( COc1ccc(F)c(CCC2CCC(CCNCCCCCN3N=C(c4ccc(OC)c(OC)c4)C4CC=CCC4C3=O)O2)c1 (stereo unspecified) [phthalazinone, 21] ) = 8.70
